Listed next: entries and their corresponding Ratio (IL-6R full / a-myc).
Biological target: T1, IL-6R-Fc 항원 (IL-6R full domain 단백질) (human, UniProt P08887 20-365)
T1 construct: domain: IL-6R full domain; Expressed transiently in HEK293E and purified from the supernatant; also called IL-6R 항원; not shown: Fc part from expression vector pYK 604
T1 sequence (looked up): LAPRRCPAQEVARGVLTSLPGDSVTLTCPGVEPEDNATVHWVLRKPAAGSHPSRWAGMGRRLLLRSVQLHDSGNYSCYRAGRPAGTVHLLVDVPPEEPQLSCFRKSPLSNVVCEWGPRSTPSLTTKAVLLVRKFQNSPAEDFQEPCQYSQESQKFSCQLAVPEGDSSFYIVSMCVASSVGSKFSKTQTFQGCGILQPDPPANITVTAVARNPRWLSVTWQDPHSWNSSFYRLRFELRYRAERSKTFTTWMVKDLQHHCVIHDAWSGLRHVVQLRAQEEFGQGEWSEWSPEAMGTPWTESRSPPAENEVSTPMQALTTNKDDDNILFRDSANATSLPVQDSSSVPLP
Assay: mono phage ELISA, ratio of OD on IL-6R full to OD on a-myc
Give only the figure.

// below: answered binders
# binder, Ratio (IL-6R full / a-myc)
data = [
    ("모노 파아지 클론 D2 (scFv on phage) (scFv) DVHSQVQLVESGAEVKKPGSSVKVSCKGSGDTFPNYAINWVRQAPGQGPEWMGRIIPMLGTSDYAEKFQGRVTITADKSTNTAYMGLNSLRSEDTAVYYCVKGPRYYGTDSYYLEKWGQGTMVTVSSDVHSQLVLTQPPSVSGAPGQTVTISCTGPTIGAGYDVHWYQQLPGAAPKLLIYGNLNRPSGVPDRFSGSKSGTSASLAITDLQAEDEADYYCHTYDSSLSGSWVFGGGTKLTVL", 7.71),
    ("모노 파아지 클론 F2 (scFv on phage) (scFv) DVHSQVQLVESGAEVKKPGASVKVSCKASGYTFTNYYMHWVRQAPGQGLEWMGIINPSGGNTGYAQKFQGRVTMTRDMSTSTAYMELSSLRSEDTAVYYCARGLPWGENGLDVWGQGTTVTVSSDVHSQLVLTQPSSVSGAPGQTVTISCTGSSSNIGAGYDVHWYQQLPGTAPKVLIYGDSDRPSGVPDRFSGSKSATSASLAITGLQAEDEADYYCQSYDSSLSAYVFGTGTKVTVL", 9.96),
    ("모노 파아지 클론 A7 (scFv on phage) (scFv) DVHSQMQLVESGGGLVQPGTSLRLSCAASGFKFEDYAMHWVRQAPGKGLEWVSGVSWNSGTIAYVDSVKGRFTISRDNAKNSLYLQMNSLRAEDTAVYYCARDFTYFYESSGYYAFDLWGQGTMVTVSSDVHSQLVLTQPPSVSGAPGQRVTISCTGTNSNIGAGYDVHWYQQVPGTTPKLLIYGNTNRPSGVPDRFSGSKSGTSASLAITGLQAEDGGDYYCQSFDSSLTGSVFGTGTKVTVL", 31.1),
]

# context switch: different binder, same Ratio (IL-6R full / a-myc)
INPUT: Identify the reported Ratio (IL-6R full / a-myc) for the following entry. 모노 파아지 클론 B10 (scFv on phage) (scFv) DVHSQVQLVESGGGLVQPGGSLRLSCAASGFIFDDYAMFWVRQVPGKGLEWVAGINWNGNGIGYGDSVRGRFIISRDNARNSLDLQMNSLRAEDTAVYYCARPSLYGGNSEFDLWGQGTLVTVSSDVHSQLVLTQPPSVSGAPGQTVTISCTGPTIGAGYDVHWYQQLPGAAPKLLIYGNLNRPSGVPDRFSGSKSGTSASLAITDLQAEDEADYYCHTYDSSLSGSWVFGGGTKLTVL
OUTPUT: 18.6
